# credit: the NIST ThermoML archive (doi:10.1016/j.fluid.2011.12.029)

Would you mind telling me the reported mass density of each entry?
settings: 298.15 K; 65000 kPa; Liquid; Vibrating tube method
Use kg/m3 as the unit, but write only the number.

Challenge: // query mass density value for entry CCCCCCCC[n+]1cccc(C)c1.F[B-](F)(F)F [N-octyl-3-methylpyridinium tetrafluoroborate]
Response given: 1124.52

Challenge: // query mass density value for entry CCCC[n+]1cccc(C)c1.N#C[N-]C#N [1-butyl-3-methylpyridinium dicyanamide]
Response given: 1072.1

Challenge: // query mass density value for entry `CCC[n+]1ccccc1Oc1ccc(Cl)c[n+]1CCOS(=O)(=O)[O-].F[B-](F)(F)F`
Response given: 1278.65

Challenge: // query mass density value for entry CCCC[n+]1ccccc1.F[B-](F)(F)F [1-butylpyridinium tetrafluoroborate]
Response given: 1240.44

----------
settings: 293.15 K; 20000 kPa; Liquid; Vibrating tube method
measured-property: mass density (kg/m3)
Use kg/m3 as the unit, but write only the number.

Challenge: // query mass density value for entry CCCC[n+]1ccccc1.F[B-](F)(F)F [1-butylpyridinium tetrafluoroborate]
Response given: 1226.68

Challenge: // query mass density value for entry `CCC[n+]1ccccc1Oc1ccc(Cl)c[n+]1CCOS(=O)(=O)[O-].F[B-](F)(F)F`
Response given: 1265.5

Challenge: // query mass density value for entry CCCCCCCC[n+]1cccc(C)c1.F[B-](F)(F)F [N-octyl-3-methylpyridinium tetrafluoroborate]
Response given: 1109.18

Challenge: // query mass density value for entry CCCC[n+]1cccc(C)c1.N#C[N-]C#N [1-butyl-3-methylpyridinium dicyanamide]
Response given: 1060.01

----------
conditions: 318.15 K; 5000 kPa; Liquid; Vibrating tube method
measured-property: mass density (kg/m3)
Use kg/m3 as the unit, but write only the number.

Challenge: // query mass density value for entry CCCC[n+]1ccccc1.F[B-](F)(F)F [1-butylpyridinium tetrafluoroborate]
Response given: 1202.66

Challenge: // query mass density value for entry CCCC[n+]1ccccc1.O=S(=O)([O-])C(F)(F)F [1-butylpyridinium trifluoromethanesulfonate]
Response given: 1303.07

Challenge: // query mass density value for entry CCCCCCCC[n+]1cccc(C)c1.F[B-](F)(F)F [N-octyl-3-methylpyridinium tetrafluoroborate]
Response given: 1085.16

Challenge: // query mass density value for entry CCCC[n+]1cccc(C)c1.N#C[N-]C#N [1-butyl-3-methylpyridinium dicyanamide]
Response given: 1039.29

Challenge: // query mass density value for entry `CCC[n+]1ccccc1Oc1ccc(Cl)c[n+]1CCOS(=O)(=O)[O-].F[B-](F)(F)F`
Response given: 1241.01

----------
settings: 308.15 K; 35000 kPa; Liquid; Vibrating tube method
measured-property: mass density (kg/m3)
Use kg/m3 as the unit, but write only the number.

Challenge: // query mass density value for entry CCCC[n+]1cccc(C)c1.N#C[N-]C#N [1-butyl-3-methylpyridinium dicyanamide]
Response given: 1056.51

Challenge: // query mass density value for entry `CCC[n+]1ccccc1Oc1ccc(Cl)c[n+]1CCOS(=O)(=O)[O-].F[B-](F)(F)F`
Response given: 1260.93

Challenge: // query mass density value for entry CCCCCCCC[n+]1cccc(C)c1.F[B-](F)(F)F [N-octyl-3-methylpyridinium tetrafluoroborate]
Response given: 1106.18

Challenge: // query mass density value for entry CCCC[n+]1ccccc1.F[B-](F)(F)F [1-butylpyridinium tetrafluoroborate]
Response given: 1222.62

Challenge: // query mass density value for entry CCCC[n+]1ccccc1.O=S(=O)([O-])C(F)(F)F [1-butylpyridinium trifluoromethanesulfonate]
Response given: 1326.93
